Test system: THP-1 cells
Below, each entry is listed alongside its reported GI50.
assay endpoint: GI50 (nM)

[[record]]
molecule = "COc1ncccc1-n1nc(C)c2c1C(=O)N(c1cc(C)c3nnc(C)n3c1)C2c1ccc(Cl)cc1F (centres unmarked)"
endpoint_value = 131

[[record]]
molecule = "Cc1cc(N2C(=O)c3c(c(CF)nn3C3CC3)C2c2ccc(Cl)cc2)cn2c(C)nnc12 (centres unmarked)"
endpoint_value = 36.9

[[record]]
molecule = "Cc1nn(C2CC2)c2c1C(c1ccc(Cl)cc1)N(c1cc(C)c3nnn(C)c3n1)C2=O (centres unmarked)"
endpoint_value = 10.6

[[record]]
molecule = "COc1ncc(-n2nc(C)c3c2C(=O)N(c2cc(C)c(=O)n(C)c2)[C@@H]3c2ccc(Cl)cc2)c(OC)n1"
endpoint_value = 88

[[record]]
molecule = "Cc1nn(-c2ccnn2C)c2c1[C@@H](c1ccc(Cl)cc1)N(c1cc(C)c(=O)n(C)c1)C2=O"
endpoint_value = 79.2

[[record]]
molecule = "CC(=O)Nc1cc(N2C(=O)c3c(c(C)nn3C3CC3)C2c2ccc(Cl)cc2)nn2c(C)nnc12 (centres unmarked)"
endpoint_value = 576

[[record]]
molecule = "Cc1cc(N2C(=O)c3c(cnn3C3CC3)C2c2ccc(Cl)cc2)cn(C)c1=O (centres unmarked)"
endpoint_value = 162

[[record]]
molecule = "Cc1cc(N2C(=O)c3nn(C4CNC4)c(C)c3C2c2ccc(Cl)cc2)cn2c(C)nnc12 (centres unmarked)"
endpoint_value = 2600


* * *

Test system: K-562 cells
Heads up, the class ranges for GI50 are bottom bin = under 400 nM, middle bin = from 400 nM up to 700 nM, top bin = 700 nM and over

[[record]]
compound = "Cc1ncccc1-n1nc2c(c1C)C(c1ccc(Cl)cc1)N(c1cc(C)c(=O)n(C)c1)C2=O (stereo not drawn)"
answer_label = "top bin"

[[record]]
compound = "COc1ncc(-n2nc(C)c3c2C(=O)N(c2cc(Cl)c(=O)n(C)c2)C3c2ccc(Cl)cc2)c(OC)n1 (stereo not drawn)"
answer_label = "top bin"

[[record]]
compound = "Cc1nn(C2CN(C)C2)c2c1C(c1ccc(Cl)cc1)N(c1cc(C)c(=O)n(C)c1)C2=O (stereo not drawn)"
answer_label = "top bin"

[[record]]
compound = "Cc1nn(C2CC2)c2c1C(c1ccc(Cl)cc1)N(c1cc(C)c3nnn(C)c3n1)C2=O (stereo not drawn)"
answer_label = "bottom bin"

[[record]]
compound = "Cc1cc(N2C(=O)c3nn(C4CN(C)C4)c(C)c3C2c2ccc(Cl)cc2)cn2c(C)nnc12 (stereo not drawn)"
answer_label = "middle bin"

[[record]]
compound = "CNc1cc(N2C(=O)c3c(c(C)nn3C3CC3)C2c2ccc(Cl)cc2)nn2c(C)nnc12 (racemic)"
answer_label = "middle bin"

[[record]]
compound = "Cc1nn(-c2ccnn2C)c2c1C(c1ccc(Cl)cc1)N(c1cc(C)c(=O)n(C)c1)C2=O (racemic)"
answer_label = "middle bin"

[[record]]
compound = "Cc1nn(C2CC2)c2c1C(c1ccc(Cl)cc1F)N(c1cc(C)c3nnc(C)n3c1)C2=O (stereo not drawn)"
answer_label = "bottom bin"

[[record]]
compound = "Cc1cc(N2C(=O)c3c(cnn3C3CC3)C2c2ccc(Cl)cc2)cn(C)c1=O (stereo not drawn)"
answer_label = "middle bin"

[[record]]
compound = "Cc1nn(C(C)C)c2c1[C@H](c1ccc(Cl)cc1)N(c1cc(C)c(=O)n(C)c1)C2=O"
answer_label = "top bin"

[[record]]
compound = "COc1ncc(-n2nc3c(c2C(C)C)C(c2ccc(Cl)cc2)N(c2cc(C)c4nnc(C)n4c2)C3=O)c(OC)n1 (stereo not drawn)"
answer_label = "bottom bin"

[[record]]
compound = "Cc1nn(C(C)C)c2c1[C@@H](c1ccc(Cl)cc1)N(c1cc(C)c(=O)n(C)c1)C2=O"
answer_label = "bottom bin"

